test.system: Mitogen-activated protein kinase 14 (Homo sapiens)
Sequence (Q16539 whole entry): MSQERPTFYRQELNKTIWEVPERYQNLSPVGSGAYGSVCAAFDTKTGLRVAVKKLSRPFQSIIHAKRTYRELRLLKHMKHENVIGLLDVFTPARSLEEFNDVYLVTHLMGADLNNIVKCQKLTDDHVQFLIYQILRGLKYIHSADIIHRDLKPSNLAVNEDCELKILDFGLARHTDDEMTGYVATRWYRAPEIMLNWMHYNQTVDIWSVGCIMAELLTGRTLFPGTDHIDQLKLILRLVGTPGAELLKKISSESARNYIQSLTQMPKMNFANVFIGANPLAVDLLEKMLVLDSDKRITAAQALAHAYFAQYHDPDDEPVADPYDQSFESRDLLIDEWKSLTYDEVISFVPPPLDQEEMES
test: Inhibition of p38alpha
assay.metric: EC50 (µM)

INSERT INTO assay_data (chemical_smiles, observed_value) VALUES
  ('Cc1cccc(-c2nc(N)sc2-c2ccc3nccnc3c2)n1', 22),
  ('CC(=O)Nc1nc(-c2ccc(F)c(C)n2)c(-c2ccc3ncnn3c2)[nH]1', 28.1),
  ('CC(=O)N1CCN(c2nc(-c3ccc(F)c(C)n3)c(-c3ccc4ncnn4c3)[nH]2)CC1', 14.2),
  ('COCC(=O)Nc1nc(-c2ccc(F)c(C)n2)c(-c2ccc3nccnc3c2)[nH]1', 15);
